Test system: MILI (PIWIL2) piRISC loaded with piRNA #1 (26 nt);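 also: 1 nM active piRISC with 0.1 nM target library at 33 °C single turnover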
Experiment: pre-steady-state target cleavage rate (min^-1); guide: piRNA #1 5'p-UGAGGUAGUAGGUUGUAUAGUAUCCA; higher = faster piRNA-guided slicing of the target
Conditions: auxiliary factor: 500 nM mouse GTSF1
observation_type: pre-steady-state target cleavage rate
Provide a numeric answer; units are not to be included.

Solved entries:
GGAGAGAAUACUAUACAACCUACUACCUCA :: 0.177
GGAGUGGAUAGUAUACAACCUACAACCUCA :: 0.0845
GGAGUGGAUACUAUACAUCCUACUAGCUCA :: 0.0444

Request: Which pre-steady-state target cleavage rate value belongs to GGAGAGGAUACAAUACAACCAACUACCUCA ?
Result: 0.00985

Request: Which pre-steady-state target cleavage rate value belongs to GGAGAGGAUACUCAUACAACCUACUACCUCA ?
Result: 0.149

Request: Which pre-steady-state target cleavage rate value belongs to GGAGACCAUACUAUAGAACCUACUACCUCA ?
Result: 0.116

Request: Which pre-steady-state target cleavage rate value belongs to GGAGAGGAUGCUAUACAACCUACUACCUCA ?
Result: 0.151

Request: Which pre-steady-state target cleavage rate value belongs to GGAGUGGAAUACUAUACAACCUACUACCUCA ?
Result: 0.165

Request: Which pre-steady-state target cleavage rate value belongs to GGAGACCUAACUAUACAACCUACUACAUCA ?
Result: 0.0477

Request: Which pre-steady-state target cleavage rate value belongs to GGAGACCUAUGUAUACUACCUACUAGCUCA ?
Result: 0.0108

Request: Which pre-steady-state target cleavage rate value belongs to GGAGACCUUUCUAUACAUCCUACUACCUCA ?
Result: 0.158

Request: Which pre-steady-state target cleavage rate value belongs to GGAGACGAUACUGAUACAACCUACUACCUCA ?
Result: 0.203

Request: Which pre-steady-state target cleavage rate value belongs to GGAGAGGGAUACUAUACAACCUACUACCUCA ?
Result: 0.237

----------
Tested on: MILI (PIWIL2) piRISC loaded with piRNA #1 (26 nt);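 also: 1 nM active piRISC with 0.1 nM target library at 33 °C single turnover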
Experiment: pre-steady-state target cleavage rate (min^-1); guide: piRNA #1 5'p-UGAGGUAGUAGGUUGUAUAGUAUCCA; MIWI and MILI are mouse PIWI proteins and EfPiwi is from a freshwater sponge; tags in brackets are library labels; higher = faster piRNA-guided slicing of the target
Details: auxiliary factor: 500 nM mouse GTSF1
// classify(record): look up pre-steady-state target cleavage rate in ranges range A = under 0.06, range B = from 0.06 up to 0.1, range C = 0.1 and over

Before answering, review these 5 worked examples.
GGAGAGGAUACUGAUACAACCUACUACCUCA :: range C
GGAGACCAUACUAUACAACCUACAACCACA :: range B
GGAGUCGAUACAAUACAACCUACUACCUCA :: range C
GGAGACCAAACUAUACAACCUACAACCUCA :: range C
GGAGUGGAGACUAUACAACCUACUACCUCA :: range C

Request: Categorize the following entry: GGAGACCUAUGAAUACAACCGACUACCUCA
Result: range A

Request: Categorize the following entry: GGAGACGAUACUAUACUUGCUACUACCUCA
Result: range B

Request: Categorize the following entry: GGAGACGAAAGUAUACAACCUACUACCUCA
Result: range C

Request: Categorize the following entry: GGAGACCUAACUAUUCUACCUACUACCUCA
Result: range C

Request: Categorize the following entry: GGAGACCUUAUAUACAACCUACUACCUCA
Result: range A

Request: Categorize the following entry: GGAGACGAUACUAUACUACCUACUACCACA
Result: range C

Request: Categorize the following entry: GGAGACCAUACUAUUCAACCUUCUACCUCA
Result: range A

Request: Categorize the following entry: GGAGACCAAACUAUACAACCUACUACCACA
Result: range C

Request: Categorize the following entry: GGAGACCUAUGAUAUGUACCUACUACCGCA
Result: range A

Request: Categorize the following entry: GGAGUGGAUAGUAUACAACCUACUAGCUCA
Result: range A

Request: Categorize the following entry: GGAGACGUAUACUAUACAACCUACUACCUCA
Result: range C

Request: Categorize the following entry: GGAGACCUAUGUAUUGAACCUACUACCUCA
Result: range A

Request: Categorize the following entry: GGAGACCUUAGUAUUCAACCUACUACCUCA
Result: range B

Request: Categorize the following entry: GGAGACCAUACUAUACAACCUACUACCAGA
Result: range C

Request: Categorize the following entry: GGAGACCUAACAAUACAACGUACUACCUCA
Result: range A

Request: Categorize the following entry: GGAGACCUUACUAUACAACCUACUACCGCA
Result: range C

Request: Categorize the following entry: GGAGACCUAUCUAUUCAACCUACUUCCUCA
Result: range A

Request: Categorize the following entry: GGAGACCUAUCGAUACAACCUACUACCUCA
Result: range B

Request: Categorize the following entry: GGAGACCAUACAUACAACCUACUACCUCA
Result: range C
